Target: human glucagon receptor (GCGR) (human, UniProt P47871 26-477)
Sequence (P47871 26-477): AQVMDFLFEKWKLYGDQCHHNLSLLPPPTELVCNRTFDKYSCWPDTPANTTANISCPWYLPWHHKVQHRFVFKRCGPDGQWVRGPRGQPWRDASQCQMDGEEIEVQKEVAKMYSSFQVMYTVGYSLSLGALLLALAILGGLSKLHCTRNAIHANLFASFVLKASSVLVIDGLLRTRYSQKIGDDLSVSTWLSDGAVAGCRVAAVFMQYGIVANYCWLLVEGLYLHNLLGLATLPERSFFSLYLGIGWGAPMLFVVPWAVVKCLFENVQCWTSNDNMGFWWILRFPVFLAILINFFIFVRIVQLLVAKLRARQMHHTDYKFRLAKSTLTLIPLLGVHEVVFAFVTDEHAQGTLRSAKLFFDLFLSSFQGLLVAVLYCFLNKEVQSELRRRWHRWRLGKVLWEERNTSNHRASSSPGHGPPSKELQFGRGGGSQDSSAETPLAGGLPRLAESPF
Assay: cell-based or functional assay
*1 amine or outer side, *2 acyl side, *3 side chain or, on linkers, in order; H or OH if unused. Primed or numbered codes have the meaning given here. Where no end group is shown, it is not given here. Side-chain parts run from the residue outwards. [ ]: non-standard residue; d: D form. The star is where a group is joined. PEG4′ = 4 PEG units (K(PEGxpalm): Lys with x PEG units and palmitoyl at epsilon N, C-terminal (PEG)4); γGlu = O=C(O)[C@H](CCC(=O)[*:2])N[*:1]; Palmitoyl = CCCCCCCCCCCCCCCC(=O)*
Label rule, in plain words: cAMP activity, Glcg EC50 nM of 0.002 nM and up is rule met, under 0.002 nM is rule not met.

[[record]]
binder = "HSQGTFTSDYSKYLDSRKAQDFVQWLE[PEG4′] (not fully specified (residue 18); printed as HSQGTFTSDYSKYLDSRB1AQDFVQWLEZ4) [g455]"
category = "rule not met"

[[record]]
binder = "HSEGTFTSDYSKYLDSKRAQDFVQWLV[PEG4′] (not fully specified (residue 17); printed as HSEGTFTSDYSKYLDSB1RAQDFVQWLVZ4) [g433]"
category = "rule met"

[[record]]
binder = "HSQGTFTSDYSXYLDSRRAQDFVQWLV (K(gE-palm) at 12; C-terminal PEG4) [g416]"
category = "rule met"

[[record]]
binder = "HGQGTFTSDYSKYLDSK([γGlu-Palmitoyl])RAQDFVEWLV[PEG4′] [g694]"
category = "rule met"

